Each entry below carries its reported melting point.
property.measured: melting point (°C)

[[record]]
compound = "CCCCN(C(=O)O[C@H]1C[N+]2(CC=Cc3ccccc3)CCC1CC2)c1ccccc1.[Br-] [Example 58]"
observed_result = 144

[[record]]
compound = "O=C(O[C@H]1C[N+]2(CCc3ccccc3)CCC1CC2)N(Cc1ccccc1)c1ccccc1.[Br-]"
observed_result = 81

[[record]]
compound = "CCCCN(C(=O)O[C@H]1C[N+]2(CCc3ccccc3)CCC1CC2)c1ccccc1.[Br-]"
observed_result = 139

[[record]]
compound = "C=CC[N+]12CCC(CC1)[C@@H](OC(=O)N(CCCC)c1ccccc1)C2.[Br-]"
observed_result = 141

[[record]]
compound = "O=C(O[C@@H]1C[N+]2(CCCc3ccccc3)CCC1CC2)N(Cc1ccccc1)c1ccccc1.[Br-]"
observed_result = 64

[[record]]
compound = "C=CC[N+]12CCC(CC1)[C@@H](OC(=O)N(Cc1ccccc1)c1ccccc1)C2.[Br-] [Example 6]"
observed_result = 70

[[record]]
compound = "O=C(O[C@H]1C[N+]2(CCCc3ccccc3)CCC1CC2)N(Cc1ccccc1)c1ccccc1.[Br-] [Example 31]"
observed_result = 101

[[record]]
compound = "O=C(O[C@H]1C[N+]2(CC=Cc3ccccc3)CCC1CC2)N(Cc1ccccc1)c1ccccc1.[Br-] [Example 5]"
observed_result = 129

[[record]]
compound = "CCCCN(C(=O)O[C@H]1C[N+]2(CCCc3ccccc3)CCC1CC2)c1ccccc1.[Br-]"
observed_result = 120


Reference for the values: patent US7312231B2
